- Assay Comment: Pharmacokinetics and brain distribution study after a single oral administration
- Applied Conditions: male, Sprague Dawley, rat, plasma, po, 10 mg/kg
Recorded Endpoint: MRT inf (h)
Value expressed in h; do not type the unit.

In: Consider the molecule shown here: C=CC(=O)N1CCC[C@@H](c2nc(-c3ccc(Oc4ccccc4)cc3)c3c(N)nccn23)C1 What is its recorded MRT inf?
Out: 2.03

In: Consider the molecule shown here: C=CC(=O)N1CCC[C@@H](n2nc(-c3ccc(Oc4ccccc4)cc3)c3c(N)ncnc32)C1 [Ibrutinib, reference compound] What is its recorded MRT inf?
Out: 2.41

###

- Assay Comment: Pharmacokinetics and brain distribution study after a single oral administration
- Applied Conditions: male, Sprague Dawley, rat, CSF, po, 10 mg/kg
Recorded Endpoint: AUC(0-t) (ng·h/mL)
Value expressed in ng·h/mL; do not type the unit.

In: Consider the molecule shown here: C=CC(=O)N1CCC[C@@H](c2nc(-c3ccc(Oc4ccccc4)cc3)c3c(N)nccn23)C1 [Example 7] What is its recorded AUC(0-t)?
Out: 0.119

In: Consider the molecule shown here: C=CC(=O)N1CCC[C@@H](n2nc(-c3ccc(Oc4ccccc4)cc3)c3c(N)ncnc32)C1 [Ibrutinib, reference compound] What is its recorded AUC(0-t)?
Out: 0.0875

###

- Experimental Target: BTK C481S (Homo sapiens, UniProt Q06187, C481S)
- Sequence (Q06187 whole entry C481S): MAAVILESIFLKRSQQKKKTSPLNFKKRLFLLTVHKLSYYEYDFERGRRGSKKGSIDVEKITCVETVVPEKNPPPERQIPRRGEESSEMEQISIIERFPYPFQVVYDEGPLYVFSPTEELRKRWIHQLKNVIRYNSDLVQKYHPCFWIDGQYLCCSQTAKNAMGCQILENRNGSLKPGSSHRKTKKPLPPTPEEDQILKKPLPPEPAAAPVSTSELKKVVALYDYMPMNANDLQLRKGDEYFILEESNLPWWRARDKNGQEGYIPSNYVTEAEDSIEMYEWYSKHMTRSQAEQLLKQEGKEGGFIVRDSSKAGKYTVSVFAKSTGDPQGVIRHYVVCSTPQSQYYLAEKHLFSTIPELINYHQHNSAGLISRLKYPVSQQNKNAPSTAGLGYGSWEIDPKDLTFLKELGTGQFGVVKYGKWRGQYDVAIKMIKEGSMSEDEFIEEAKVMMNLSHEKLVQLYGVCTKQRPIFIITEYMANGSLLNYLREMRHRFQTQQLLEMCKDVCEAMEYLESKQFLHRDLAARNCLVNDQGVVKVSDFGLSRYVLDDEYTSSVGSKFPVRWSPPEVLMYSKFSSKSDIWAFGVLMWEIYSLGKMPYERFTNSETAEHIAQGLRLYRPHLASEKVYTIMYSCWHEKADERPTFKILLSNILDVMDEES
- Assay Comment: BTK C481S kinase inhibition test (HTRF)
For each of the molecules below, state its pIC50.
pIC50 (log units): -log10 of the concentration in mol/L.

In: Return pIC50 measured with BTK C481S (Homo sapiens, UniProt Q06187, C481S) given this molecule: C=CC(=O)N1CCC[C@H](c2nn(-c3ccc(Oc4ccccc4)cc3)c3c(N)ncnc23)C1
Out: 7.79

In: Return pIC50 measured with BTK C481S (Homo sapiens, UniProt Q06187, C481S) given this molecule: C=CC(=O)N1CCC[C@@H](c2nc(-c3ccc(Oc4ccccc4)cc3)c3c(N)nccn23)C1
Out: 8.61

In: Return pIC50 measured with BTK C481S (Homo sapiens, UniProt Q06187, C481S) given this molecule: C=CC(=O)N1CCC[C@@H](c2cn(-c3ccc(Oc4ccccc4)cc3)c3c(N)ncnc23)C1
Out: 7.97

In: Return pIC50 measured with BTK C481S (Homo sapiens, UniProt Q06187, C481S) given this molecule: C=CC(=O)N1CCC[C@@H](c2nc(-c3ccc(Oc4ccccc4)cc3)c3c(N)ncnn23)C1
Out: 8.41

In: Return pIC50 measured with BTK C481S (Homo sapiens, UniProt Q06187, C481S) given this molecule: C=CC(=O)N1CCC[C@@H](c2nn(-c3ccc(Oc4ccccc4)cc3)c3c(N)ncnc23)C1
Out: 8.22

###

- Experimental Target: Phospho-BTK (Y223) in NIH/3T3 BTK C481S cells (Homo sapiens, UniProt Q06187, C481S)
- Assay Comment: Phospho-BTK (Y223) assay, NIH/3T3 BTK C481S cells
- Applied Conditions: phospho-BTK Y223, NIH/3T3 BTK C481S cells; read-out: NIH/3T3 BTK-C481S pBTK IC50
Recorded Endpoint: pIC50
pIC50 (log units): -log10 of the concentration in mol/L.

In: Consider the compound shown here: C=CC(=O)N1CCC[C@@H](c2nn(-c3ccc(Oc4ccccc4)cc3)c3c(N)ncnc23)C1 What is its recorded pIC50?
Out: 6.18

In: Consider the compound shown here: C=CC(=O)N1CCC[C@@H](c2nc(-c3ccc(Oc4ccccc4)cc3)c3c(N)nccn23)C1 What is its recorded pIC50?
Out: 6.79

In: Consider the compound shown here: C=CC(=O)N1CCC[C@@H](c2cn(-c3ccc(Oc4ccccc4)cc3)c3c(N)ncnc23)C1 What is its recorded pIC50?
Out: 6.30

In: Consider the compound shown here: C=CC(=O)N1CCC[C@@H](c2nc(-c3ccc(Oc4ccccc4)cc3)c3c(N)ncnn23)C1 What is its recorded pIC50?
Out: 6.54

These data points were gathered from patent US12662484B2.
